Test system: HepG2
procedure_summary: cytotoxicity call (relative viability < 0.9)
condition_summary: 10 µM
Hit rate of the full screen: of about 39,000 compounds, about 3,300 (8.5%) were called active. Shown is part of a subset that was picked to be rich in actives.
Form entry, call: pick from t = active, f = inactive

Here are 5 compounds together with their reported answers.
C[C@H](CO)N1C[C@H](C)[C@H](CN(C)Cc2ccc(C(F)(F)F)cc2)Oc2c(NC(=O)Nc3ccc(F)cc3)cccc2C1=O; f
C[C@@H]1CN([C@H](C)CO)C(=O)c2cccc(NC(=O)Nc3ccc(C(F)(F)F)cc3)c2O[C@@H]1CN(C)Cc1ccc(-c2ccccc2)cc1; t
C[C@@H]1CN([C@H](C)CO)C(=O)c2cccc(NC(=O)Nc3ccccc3)c2O[C@H]1CN(C)Cc1ccc(C(F)(F)F)cc1; t
C[C@H](CO)N1C[C@H](C)[C@H](CN(C)Cc2ccc(Oc3ccccc3)cc2)Oc2c(NC(=O)Nc3ccc(C(F)(F)F)cc3)cccc2C1=O; f
C[C@H]1CN([C@@H](C)CO)C(=O)c2cccc(NC(=O)Nc3ccc(C(F)(F)F)cc3)c2O[C@@H]1CN(C)Cc1ccc(Oc2ccccc2)cc1; f

Problem: Outcome? Cc1ccc(S(=O)(=O)NCC[C@H]2CC[C@@H](NS(=O)(=O)c3ccccc3Cl)[C@@H](CO)O2)cc1
Solution: f

Problem: Outcome? C[C@H]1CN([C@@H](C)CO)C(=O)c2cccc(NC(=O)Nc3ccc(F)cc3)c2O[C@@H]1CN(C)Cc1ccc(C(F)(F)F)cc1
Solution: f

====

Test system: HepG2
procedure_summary: cytotoxicity call (relative viability < 0.9)
condition_summary: 10 µM
The campaign covered roughly 39,000 compounds. About 3,300 (8.5%) were called active. Many of the other results were omitted from the sample, so actives are more common in it than they were.
Form entry, call: pick from Y = active, N = inactive

Problem: Outcome? OC[C@H]1CCCN1CC1CC1
Solution: N

Problem: Outcome? Cc1noc(C)c1S(=O)(=O)Nc1ccc2c(c1)C(=O)N([C@H](C)CO)C[C@H](C)[C@H](CN(C)C(=O)Nc1ccccc1)O2
Solution: N

Problem: Outcome? c1ccc(-c2nn(-c3ccccc3)c3c2cnc2ccccc23)cc1
Solution: Y

Problem: Outcome? OCCC[C@@H](O)c1ccc(OCCO)cc1
Solution: N

Problem: Outcome? Cc1ccc(S(=O)(=O)Nc2ccc3c(c2)C(=O)N([C@@H](C)CO)C[C@@H](C)[C@H](CN(C)Cc2ccc4c(c2)OCO4)OCCCC[C@@H](C)O3)cc1
Solution: N

Problem: Outcome? COc1cccc(S(=O)(=O)Nc2ccc3c(c2)[C@@H]2C[C@@H](CC(=O)NCc4cccc(F)c4)O[C@H](CO)[C@@H]2O3)c1
Solution: N

Problem: Outcome? CN1C[C@@H](O)COC[C@H]2O[C@@H](CC(=O)N3CCN(c4ccccc4)CC3)CC[C@@H]21
Solution: N

Problem: Outcome? CCCCCCCCc1ccc(-c2ccc(C(=O)O)cc2)cc1
Solution: N

Problem: Outcome? CCS(=O)(=O)N1Cc2cc(C(=O)NCCOC)nc(-c3cccc(-c4ccncc4)c3)c2[C@H]1CCO
Solution: N

Problem: Outcome? Cc1ccc(S(=O)(=O)Nc2cccc3c2O[C@H](CN(C)S(=O)(=O)c2ccccc2)[C@@H](C)CN([C@H](C)CO)C3=O)cc1
Solution: N

Problem: Outcome? Cc1cc(C(=O)Nc2cccc3c2O[C@@H](CN(C)C(=O)NC2CCCCC2)[C@H](C)CN([C@@H](C)CO)C3=O)n(C)n1
Solution: N

Problem: Outcome? Cc1noc(C)c1NC(=O)Nc1ccc2c(c1)C(=O)N([C@H](C)CO)C[C@H](C)[C@@H](CN(C)S(=O)(=O)c1ccc(F)cc1)OCCCC[C@@H](C)O2
Solution: N

Problem: Outcome? COc1c(C)cc(-c2cc3c(c(CCc4ccccc4)n2)[Si](C(C)C)(C(C)C)O[C@H]3c2ccccc2)cc1C
Solution: N

Problem: Outcome? C[C@H](CO)N1C[C@H](C)[C@@H](CN(C)C(=O)CN(C)C)Oc2cc(C#Cc3ccccc3)ccc2S1(=O)=O
Solution: Y

====

Test system: HepG2
procedure_summary: cytotoxicity call (relative viability < 0.9)
condition_summary: 10 µM
Hit rate of the full screen: of about 39,000 compounds, about 3,300 (8.5%) were called active. The entries come from a sample that favours actives as a whole.
reported_property: cytotoxicity call

C[C@H]1CCCCO[C@@H](CN(C)S(=O)(=O)c2ccc(F)cc2)[C@@H](C)CN([C@@H](C)CO)C(=O)c2cc(NC(=O)NC3CCCCC3)ccc2O1; inactive
C[C@@H]1CCCCO[C@@H](CN(C)S(=O)(=O)c2ccc(F)cc2)[C@H](C)CN([C@@H](C)CO)C(=O)c2cc(NC(=O)NC3CCCCC3)ccc2O1; inactive
C[C@H](CO)N1C[C@H](C)[C@@H](CN(C)C(=O)Nc2cccc3ccccc23)OCCCC[C@H](C)Oc2ccc(NC(=O)c3ccccc3)cc2C1=O; inactive

====

Test system: HepG2
procedure_summary: cytotoxicity call (relative viability < 0.9)
condition_summary: 10 µM
Out of some 39,000 compounds screened, about 3,300 (8.5%) were called active. This is one part of a sample in which actives are shown more often than they occur.
Form entry, call: pick from active, inactive

Here are 5 compounds together with their reported answers.
O=C(O)CNc1ncccc1O; inactive
COc1ccc(CN(C)C[C@H]2Oc3ccc(NC(=O)Nc4cccc5ccccc45)cc3CC(=O)N([C@@H](C)CO)C[C@@H]2C)cc1; active
COc1ccc(CN(C)C[C@H]2Oc3ccc(NC(=O)Nc4cccc5ccccc45)cc3CC(=O)N([C@H](C)CO)C[C@H]2C)cc1; active
COc1ccc(CN(C)C[C@@H]2Oc3ccc(NC(=O)Nc4cccc5ccccc45)cc3CC(=O)N([C@H](C)CO)C[C@@H]2C)cc1; inactive
C[C@@H]1CN([C@@H](C)CO)C(=O)c2cc(NC(=O)Nc3ccc(F)cc3)ccc2O[C@@H]1CN(C)Cc1ccc(Cl)c(Cl)c1; active

Problem: Outcome? C[C@@H]1CN([C@@H](C)CO)S(=O)(=O)c2ccc(-c3cncnc3)cc2O[C@@H]1CN(C)C(=O)c1ccc2c(c1)OCO2
Solution: inactive

Problem: Outcome? COc1ccc(CN(C)C[C@@H]2Oc3ccc(NC(=O)Nc4cccc5ccccc45)cc3CC(=O)N([C@@H](C)CO)C[C@@H]2C)cc1
Solution: active

====

Tested on: HepG2
procedure_summary: cytotoxicity call (relative viability < 0.9)
condition_summary: 10 µM
Out of some 39,000 compounds screened, about 3,300 (8.5%) were called active. What follows is part of a selection rich in actives, with near analogues and random picks from the rest.
Form entry, call: pick from yes for active, no for inactive

Here are 4 molecules together with their reported answers.
COc1ccc(S(=O)(=O)N(C)C)cc1; no
C[C@H]1CCCCO[C@@H](CN(C)C(=O)NC2CCCCC2)[C@@H](C)CN([C@@H](C)CO)C(=O)c2cc(NC(=O)Cc3ccccc3)ccc2O1; no
COC1=CC(=O)c2ccccc2C1=O; no
C[C@H]1CN([C@@H](C)CO)C(=O)c2cccc(NC(=O)c3cnccn3)c2O[C@@H]1CN(C)S(=O)(=O)c1ccccc1; no

Okay, now this molecule:
Problem: Outcome? C=CC(C1=CC(=O)C(OC)=CC1=O)c1ccccc1 (stereo not drawn)
Solution: yes

====

System: HepG2
procedure_summary: cytotoxicity call (relative viability < 0.9)
condition_summary: 10 µM
In all, about 39,000 compounds went through this assay and about 3,300 (8.5%) were called active. The full list was thinned out, with actives kept by preference.
reported_property: cytotoxicity call

Cc1noc(C)c1NC(=O)N(C)C[C@@H]1Oc2cc(C#CCN(C)C)ccc2S(=O)(=O)N([C@@H](C)CO)C[C@@H]1C; inactive
C[C@@H]1CN([C@H](C)CO)C(=O)c2cc(NC(=O)Nc3ccc4c(c3)OCO4)ccc2O[C@@H](C)CCCCO[C@@H]1CN(C)S(=O)(=O)c1ccccc1; inactive
C[C@@H]1CN([C@H](C)CO)C(=O)c2cccc(NS(=O)(=O)c3cccs3)c2O[C@@H]1CN(C)CC1CC1; inactive
C[C@@H]1CCCCO[C@H](CN(C)Cc2ccc(C(F)(F)F)cc2)[C@H](C)CN([C@H](C)CO)C(=O)c2cc(NC(=O)c3ccccc3)ccc2O1; inactive
Cc1ccc(S(=O)(=O)Nc2ccc3c(c2)C(=O)N([C@@H](C)CO)C[C@H](C)[C@@H](CN(C)C(=O)Nc2ccc(F)cc2)OCCCC[C@@H](C)O3)cc1; inactive

Query compound follows.
Problem: Which cytotoxicity call value is on record for C[C@@H]1CN([C@H](C)CO)C(=O)c2cc(NC(=O)c3ccccc3)ccc2O[C@@H](C)CCCCO[C@@H]1CN(C)Cc1ccc(C(F)(F)F)cc1 ?
Solution: inactive

====

Test system: HepG2
procedure_summary: cytotoxicity call (relative viability < 0.9)
condition_summary: 10 µM
Screen size: about 39,000 compounds; about 3,300 (8.5%) were called active. Many of the other results were omitted from the sample, so actives are more common in it than they were.
Form entry, call: pick from Y (active), N (inactive)

Here are 4 compounds together with their reported answers.
COc1ccc(NC(=O)N(C)C[C@H]2Oc3c(NC(=O)c4ccc(-c5nccs5)cc4)cccc3C(=O)N([C@H](C)CO)C[C@H]2C)cc1; N
C[C@H]1CN([C@@H](C)CO)C(=O)Cc2cc(NC(=O)Cc3ccccc3)ccc2O[C@H]1CN(C)Cc1ccc(Cl)c(Cl)c1; Y
O=C(N[C@@H](c1ccc(-c2ccccc2)cc1)c1cnccn1)C1CCN(Cc2ccc(Oc3ccccc3)cc2)CC1; Y
Cc1cccnc1[C@@H](NC(=O)C1CCN(Cc2ccc(Oc3ccccc3)cc2)CC1)c1ccc(F)cc1; N

Problem: Outcome? C[C@@H]1CN([C@H](C)CO)C(=O)c2cc(NC(=O)Cc3ccccc3)ccc2O[C@@H](C)CCCCO[C@@H]1CN(C)C(=O)CCC(F)(F)F
Solution: N

Problem: Outcome? COc1ccc([C@@H](NC(=O)C2CCN(Cc3ccc(Oc4ccccc4)cc3)CC2)c2ccccn2)cc1
Solution: N

Problem: Outcome? COc1ccc(S(=O)(=O)N(C)C[C@H]2Oc3ccc(NS(=O)(=O)c4c(C)noc4C)cc3CC(=O)N([C@H](C)CO)C[C@@H]2C)cc1
Solution: N

Problem: Outcome? CCN(CC)CCOc1ccc(Nc2ncc3cc(-c4c(Cl)cccc4Cl)c(=O)n(C)c3n2)cc1
Solution: Y

Problem: Outcome? C[C@@H]1CN([C@@H](C)CO)C(=O)Cc2cc(NC(=O)Cc3ccccc3)ccc2O[C@H]1CN(C)Cc1ccc(Cl)c(Cl)c1
Solution: N

Problem: Outcome? C[C@@H]1CN([C@H](C)CO)C(=O)Cc2cc(NC(=O)Cc3ccccc3)ccc2O[C@@H]1CN(C)Cc1ccc(Cl)c(Cl)c1
Solution: Y

Problem: Outcome? C[C@H](CO)N1C[C@H](C)[C@@H](CN(C)Cc2ccc(Cl)c(Cl)c2)Oc2ccc(NC(=O)Cc3ccccc3)cc2CC1=O
Solution: N

Problem: Outcome? CNC[C@@H]1OCCCC[C@@H](C)Oc2ccc(NC(=O)CCCN(C)C)cc2C(=O)N([C@H](C)CO)C[C@H]1C
Solution: N
